Origin of the recorded values: paper PMC2408616

# Target of assay: T1, Kap104p, P38217
# T1 chain: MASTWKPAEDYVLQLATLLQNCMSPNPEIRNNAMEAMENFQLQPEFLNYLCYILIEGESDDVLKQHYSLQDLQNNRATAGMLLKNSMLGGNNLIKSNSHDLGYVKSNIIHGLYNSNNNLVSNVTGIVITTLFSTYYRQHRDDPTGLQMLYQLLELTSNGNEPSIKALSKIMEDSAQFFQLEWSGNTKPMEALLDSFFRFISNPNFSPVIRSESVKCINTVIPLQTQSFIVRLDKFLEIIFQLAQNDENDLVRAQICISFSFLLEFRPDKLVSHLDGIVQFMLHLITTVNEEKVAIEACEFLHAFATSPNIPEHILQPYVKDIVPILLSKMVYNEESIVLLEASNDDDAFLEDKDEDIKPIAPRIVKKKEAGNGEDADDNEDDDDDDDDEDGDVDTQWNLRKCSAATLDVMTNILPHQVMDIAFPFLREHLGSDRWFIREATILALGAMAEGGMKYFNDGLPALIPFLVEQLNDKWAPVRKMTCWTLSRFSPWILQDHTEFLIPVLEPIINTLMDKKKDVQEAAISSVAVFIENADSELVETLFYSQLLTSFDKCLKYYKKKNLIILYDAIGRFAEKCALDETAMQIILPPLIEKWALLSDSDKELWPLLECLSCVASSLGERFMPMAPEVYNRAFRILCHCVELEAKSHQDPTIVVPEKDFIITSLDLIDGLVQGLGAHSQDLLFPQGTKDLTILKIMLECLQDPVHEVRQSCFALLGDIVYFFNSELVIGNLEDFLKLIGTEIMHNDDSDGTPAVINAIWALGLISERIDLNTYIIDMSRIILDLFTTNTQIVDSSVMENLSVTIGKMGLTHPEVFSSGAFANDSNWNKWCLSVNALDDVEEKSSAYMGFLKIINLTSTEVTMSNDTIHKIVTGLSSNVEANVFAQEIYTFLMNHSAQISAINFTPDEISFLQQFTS
# Method notes: ITC
# Cond: chain shown with the change;; parent: 37 ± 20
Field: Kd. Provide a value for each of the binders that follow.
Give the value, in units of nM, as a plain number.

Need Kd of MBP–Nab2p NLS 226RGGRN230 to alanines (domain or fragment, S. cerevisiae, UniProt P32505 201-251, looked up, Nab2p NLS, residues 201-251; source: E. coli BL21(DE3), purified (amylose resin, cation exchange)) DNSQRFTQRGGGAVGKNRRGGRGGNAAAAANNSTRFNPLAKALGMAGESNM , thanks.
59

Need Kd of MBP–Nab2p NLS 216KNRR219/AAAA (domain or fragment, S. cerevisiae, UniProt P32505 201-251, looked up, Nab2p NLS, residues 201-251; source: E. coli BL21(DE3), purified (amylose resin, cation exchange)) DNSQRFTQRGGGAVGAAAAGGRGGNRGGRNNNSTRFNPLAKALGMAGESNM , thanks.
109

Need Kd of MBP–Nab2p NLS 222RGG224 to alanines (domain or fragment, S. cerevisiae, UniProt P32505 201-251, looked up, Nab2p NLS, residues 201-251; source: E. coli BL21(DE3), purified (amylose resin, cation exchange)) DNSQRFTQRGGGAVGKNRRGGAAANRGGRNNNSTRFNPLAKALGMAGESNM , thanks.
58
